Assay: Plasma and urine pharmacokinetics after TP300 infusion (LC-MS/MS, non-compartmental)
Format: in vivo, human
Details: human, in vivo; TP300 2 mg/m^2; read-out: Plasma TP300 concentration 1 h after administration, mean
assay.metric: concentration at 1 h (ng/mL)

                                   molecule  test_value
0  CCCCCN1C=Nc2cccc3nc4c(c1c23)Cn1c-4cc2c(c1=O)COC(=O)[C@@]2(CC)OC(=O)CN(C)C(=O)CN [TP300]        3.48

* * *

Assay: Plasma and urine pharmacokinetics after TP300 infusion (LC-MS/MS, non-compartmental)
Type: in vivo, human
Conditions: human, in vivo; TP300 8 mg/m^2; read-out: Plasma TP300 concentration 1 h after administration, mean
assay.metric: concentration at 1 h (ng/mL)

>>> df
                                 cpd_smiles  test_value
0  CCCCCN1C=Nc2cccc3nc4c(c1c23)Cn1c-4cc2c(c1=O)COC(=O)[C@@]2(CC)OC(=O)CN(C)C(=O)CN        2.34

From: paper PMC3517777
